conditions: in n-hexanol, 298.2 K
measurement kind: solubility (mole fraction)
Returns: the value as a bare number; no unit string appended.

[ask] What does the data say about its solubility (mole fraction)? Entry: CCCCCCCCCCCCCCCCCCCCCCCCCCCCO
[reply] 0.000906

---

settings: in n-hexanol, 328.2 K
measurement kind: solubility (mole fraction)

[ask] What does the data say about its solubility (mole fraction)? Entry: CCCCCCCCCCCCCCCCCCCCCCCCCCCCO
[reply] 0.0291

---

conditions: in n-hexanol, 303.2 K
measurement kind: solubility (mole fraction)
Returns: the value as a bare number; no unit string appended.

[ask] What does the data say about its solubility (mole fraction)? Entry: CCCCCCCCCCCCCCCCCCCCCCCCCCCCO
[reply] 0.00126

---

details: in n-hexanol, 318.2 K
measurement kind: solubility (mole fraction)
Returns: the value as a bare number; no unit string appended.

[ask] What does the data say about its solubility (mole fraction)? Entry: CCCCCCCCCCCCCCCCCCCCCCCCCCCCO
[reply] 0.00758

---

settings: in toluene, 303.2 K
measurement kind: solubility (mole fraction)

[ask] What does the data say about its solubility (mole fraction)? Entry: CCCCCCCCCCCCCCCCCCCCCCCCCCCCO
[reply] 0.00246

---

settings: in n-pentanol, 313.2 K
measurement kind: solubility (mole fraction)
Returns: the value as a bare number; no unit string appended.

[ask] What does the data say about its solubility (mole fraction)? Entry: CCCCCCCCCCCCCCCCCCCCCCCCCCCCO
[reply] 0.00375

---

settings: in n-hexanol, 333.2 K
measurement kind: solubility (mole fraction)
Returns: the value as a bare number; no unit string appended.

[ask] What does the data say about its solubility (mole fraction)? Entry: CCCCCCCCCCCCCCCCCCCCCCCCCCCCO
[reply] 0.0602

---

conditions: in toluene, 323.2 K
measurement kind: solubility (mole fraction)
Returns: the value as a bare number; no unit string appended.

[ask] What does the data say about its solubility (mole fraction)? Entry: CCCCCCCCCCCCCCCCCCCCCCCCCCCCO
[reply] 0.0291

---

conditions: in n-pentanol, 323.2 K
measurement kind: solubility (mole fraction)

[ask] What does the data say about its solubility (mole fraction)? Entry: CCCCCCCCCCCCCCCCCCCCCCCCCCCCO
[reply] 0.013

---

settings: in n-hexanol, 313.2 K
measurement kind: solubility (mole fraction)
Returns: the value as a bare number; no unit string appended.

[ask] What does the data say about its solubility (mole fraction)? Entry: CCCCCCCCCCCCCCCCCCCCCCCCCCCCO
[reply] 0.00436

---

settings: in toluene, 298.2 K
measurement kind: solubility (mole fraction)
Returns: the value as a bare number; no unit string appended.

[ask] What does the data say about its solubility (mole fraction)? Entry: CCCCCCCCCCCCCCCCCCCCCCCCCCCCO
[reply] 0.0014

---

conditions: in n-pentanol, 328.2 K
measurement kind: solubility (mole fraction)

[ask] What does the data say about its solubility (mole fraction)? Entry: CCCCCCCCCCCCCCCCCCCCCCCCCCCCO
[reply] 0.026
